I'd be grateful if you could share measured %Inh for these entries.
- System: GSK3B;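 also: KINOMEscan kinase panel screen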
- Test settings: concentration: 1 μM, replicates: in singlicate; n = 1
Could you give me the number in %? Just the number is fine.

In: For the molecule COc1ccc(Nc2nccc(N3CCC(NC(=O)Nc4cccc(C(C)=O)c4)C3)n2)cc1 (centres unmarked) , what %Inh is on record?
Out: 7

In: # repeat for O=C1Cc2cc(Nc3nc(NCc4cccc(S(=O)(=O)C(F)(F)F)c4)ncc3C(F)(F)F)ccc2N1
Out: 0

In: Input [2H]C([2H])(c1cccc(C(F)(F)F)c1C)n1ccn2c(=O)nc(N3CCOCC3)cc12
Out: 0

In: Now the molecule COc1cc2c(cc1OCCN1CCN(C)CC1)ncc1c3ccc(C#N)cc3[nH]c21
Out: 0

In: Could you do the same for CSc1ccc(-c2cc3ncnc(SCC(=O)O)c3s2)cc1 , please?
Out: 0
